Entries and their measured Mean No of serum samples >30% inhibition (30% CCP) with SCP (serum samples) follow.
Target desc: pre-existing anti-drug antibodies (ADA) present in human sera
Method notes: pre-existing ADA ELISA, scFv coated, human sera unspiked vs spiked
Readout name: Mean No of serum samples >30% inhibition (30% CCP) with SCP (serum samples)

Binder: PRO3349 (scFv 54-21-H03-sc01_(T101R, T146E)) (scFv, PRO1922 variant; VH substitutions, AHo numbering; also called PRO1922 T101R-T146E) scFv: DIQMTQSPSSLSASVGDRVTITCQASESIYSSLAWYQQKPGKAPKLLIYLASTLASGVPSRFSGSGSGTDFTLTISSLQPEDFATYYCQSTDYTTSTHRNSFGTGTKVTVLGGGGGSGGGGSGGGGSGGGGSEVQLVESGGGLVQPGGSLRLSCAASGFSFSTTYYMCWVRQAPGKGLEWIGCTNTASSVRTYYATWAKGRFTISRDNSKNTVYLQMNSLRAEDRAVYYCARDMGFADYALNLWGQGTLVEVSS
Measurement: 0
--
Binder: PRO3344 (scFv 54-21-H03-sc01_(T101K, T146Q)) (scFv, PRO1922 variant; VH substitutions, AHo numbering; also called PRO1922 T101K-T146Q) scFv: DIQMTQSPSSLSASVGDRVTITCQASESIYSSLAWYQQKPGKAPKLLIYLASTLASGVPSRFSGSGSGTDFTLTISSLQPEDFATYYCQSTDYTTSTHRNSFGTGTKVTVLGGGGGSGGGGSGGGGSGGGGSEVQLVESGGGLVQPGGSLRLSCAASGFSFSTTYYMCWVRQAPGKGLEWIGCTNTASSVRTYYATWAKGRFTISRDNSKNTVYLQMNSLRAEDKAVYYCARDMGFADYALNLWGQGTLVQVSS
Measurement: 0
--
Binder: PRO3345 (scFv 54-21-H03-sc01_(T101N, T146Q)) (scFv, PRO1922 variant; VH substitutions, AHo numbering; also called PRO1922 T101N-T146Q) scFv: DIQMTQSPSSLSASVGDRVTITCQASESIYSSLAWYQQKPGKAPKLLIYLASTLASGVPSRFSGSGSGTDFTLTISSLQPEDFATYYCQSTDYTTSTHRNSFGTGTKVTVLGGGGGSGGGGSGGGGSGGGGSEVQLVESGGGLVQPGGSLRLSCAASGFSFSTTYYMCWVRQAPGKGLEWIGCTNTASSVRTYYATWAKGRFTISRDNSKNTVYLQMNSLRAEDNAVYYCARDMGFADYALNLWGQGTLVQVSS
Measurement: 0
--
Binder: PRO3321 (scFv 54-21-H03-sc01_(L12R, T101S, L144A, T146Q)) (scFv, PRO1922 variant; VH substitutions, AHo numbering; also called PRO1922 L12R-T101S-L144A-T146Q) scFv: DIQMTQSPSSLSASVGDRVTITCQASESIYSSLAWYQQKPGKAPKLLIYLASTLASGVPSRFSGSGSGTDFTLTISSLQPEDFATYYCQSTDYTTSTHRNSFGTGTKVTVLGGGGGSGGGGSGGGGSGGGGSEVQLVESGGGRVQPGGSLRLSCAASGFSFSTTYYMCWVRQAPGKGLEWIGCTNTASSVRTYYATWAKGRFTISRDNSKNTVYLQMNSLRAEDSAVYYCARDMGFADYALNLWGQGTAVQVSS
Measurement: 0
--
Binder: PRO3348 (scFv 54-21-H03-sc01_(T101K, T146D)) (scFv, PRO1922 variant; VH substitutions, AHo numbering; also called PRO1922 T101K-T146D) scFv: DIQMTQSPSSLSASVGDRVTITCQASESIYSSLAWYQQKPGKAPKLLIYLASTLASGVPSRFSGSGSGTDFTLTISSLQPEDFATYYCQSTDYTTSTHRNSFGTGTKVTVLGGGGGSGGGGSGGGGSGGGGSEVQLVESGGGLVQPGGSLRLSCAASGFSFSTTYYMCWVRQAPGKGLEWIGCTNTASSVRTYYATWAKGRFTISRDNSKNTVYLQMNSLRAEDKAVYYCARDMGFADYALNLWGQGTLVDVSS
Measurement: 0
--
Binder: PRO2913 (scFv 37-20-B03-sc09.1_(T101S, T146Q)) (scFv, PRO2230 variant; VH substitutions, AHo numbering; also called PRO2230 T101S-T146Q) scFv: DIQMTQSPASLSASVGDRVTITCQASQSIGTYLAWYQQKPGKPPKLLIYRAFILASGVPSRFSGSGSGTDFTLTISSLQPEDFATYYCQSNFYSDSTTIGPNAFGTGTKVTVLGGGGGSGGGGSGGGGSGGGGSEVQLVESGGGLVQPGGSLRLSCAASGFSFNSDYWIYWVRQAPGKGLEWIASIYGGSSGNTQYASWAQGRFTISRDNSKNTVYLQMNSLRAEDSAVYFCARGYVDYGGATDLWGQGTLVQVSS
Measurement: 3
--
Binder: PRO1922 (scFv 54-21-H03-sc01) (scFv, also called PRO1922 wt; a-MSLN wt) scFv: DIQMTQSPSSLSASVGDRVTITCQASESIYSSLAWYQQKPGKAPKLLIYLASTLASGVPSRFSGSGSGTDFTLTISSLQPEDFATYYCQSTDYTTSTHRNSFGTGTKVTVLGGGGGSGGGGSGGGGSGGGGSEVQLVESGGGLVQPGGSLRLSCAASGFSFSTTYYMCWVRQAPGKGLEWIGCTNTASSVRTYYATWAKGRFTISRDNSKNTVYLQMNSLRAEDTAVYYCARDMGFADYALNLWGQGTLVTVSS
Measurement: 8
--
Binder: PRO2950 (scFv 37-20-B03-sc09.1_(T146Q)) (scFv, PRO2230 variant; VH substitution, AHo numbering; also called PRO2230 T146Q) scFv: DIQMTQSPASLSASVGDRVTITCQASQSIGTYLAWYQQKPGKPPKLLIYRAFILASGVPSRFSGSGSGTDFTLTISSLQPEDFATYYCQSNFYSDSTTIGPNAFGTGTKVTVLGGGGGSGGGGSGGGGSGGGGSEVQLVESGGGLVQPGGSLRLSCAASGFSFNSDYWIYWVRQAPGKGLEWIASIYGGSSGNTQYASWAQGRFTISRDNSKNTVYLQMNSLRAEDTAVYFCARGYVDYGGATDLWGQGTLVQVSS
Measurement: 4
--
Binder: PRO3339 (scFv 37-20-B03-sc09.1_(T101N, T146Q)) (scFv, PRO2230 variant; VH substitutions, AHo numbering; also called PRO2230 T101N-T146Q) scFv: DIQMTQSPASLSASVGDRVTITCQASQSIGTYLAWYQQKPGKPPKLLIYRAFILASGVPSRFSGSGSGTDFTLTISSLQPEDFATYYCQSNFYSDSTTIGPNAFGTGTKVTVLGGGGGSGGGGSGGGGSGGGGSEVQLVESGGGLVQPGGSLRLSCAASGFSFNSDYWIYWVRQAPGKGLEWIASIYGGSSGNTQYASWAQGRFTISRDNSKNTVYLQMNSLRAEDNAVYFCARGYVDYGGATDLWGQGTLVQVSS
Measurement: 0
